Target: SARS-CoV-2 NSP3 Mac1 (Severe acute respiratory syndrome coronavirus 2, UniProt P0DTD1)
Experiment: biochemical
Assay type: binding
Conditions: HTRF, Mac1; read-out: affinity
OBSERVATION TYPE: IC50 (nM)
The reply should be a number in nM, with the unit left off.

Return reported IC50; argument: O=C(Nc1ccc(C(=O)NC2c3cccc(O)c3CC2C(=O)O)c(O)c1)NC1CC1 (stereo not shown) 430

---

Molecular target: SARS-CoV-2 NSP3 Mac1 (Severe acute respiratory syndrome coronavirus 2)
Type: binding
Details: PanDDA event map, 1 minus background density correction; crystal soaking of Mac1
Quick rule: 1-BDC of at least 0.2 means yes, below that means no.

Can Nc1ncnc2c1ncn2Cc1cc(-c2ccco2)on1 be said to have 1-BDC at or above 0.2? no

Now this one: O=C(Nc1ccc(C(=O)NCc2c(C(=O)O)oc3ccccc23)cc1)NC1CC1 yes

Now this one: Nc1nc(N)c2ncn(Cc3csc(Cl)n3)c2n1 yes
